# Test system: LOX human melanoma cell adhesion to human fibronectin
# procedure summary: LOX melanoma cell adhesion to fibronectin
# Format: cell-based
# condition notes: Homo sapiens, LOX, 10 μM; read-out: % Inhibition at 10 μM
value type: inhibition at 10 µM (%)
Numbers only, in %.

Some molecules with known inhibition at 10 µM results, for comparison:
- molecule: "c1ccc(C2=C3CC4CCC(N4)C3c3ccccc32)cc1 (stereo not drawn) [Q]"
  inhibition at 10 µM (%): 0.1
- molecule: "COc1ccc(C2(O)c3ccccc3C3C4CCC(CC32)N4C)cc1 (stereo not drawn) [PP]"
  inhibition at 10 µM (%): 4.9
- molecule: "COc1ccc(C2(O)c3cc(Cl)ccc3C3C4CCC(CC32)N4C)cc1 (stereo not drawn) [XX]"
  inhibition at 10 µM (%): -23.1
- molecule: "CN1C2CCC1C1c3ccc(Cl)cc3C(O)(c3ccc(F)cc3)C1C2 (stereo not drawn) [II]"
  inhibition at 10 µM (%): 5.4
- molecule: "COc1ccc2c(c1)C1=C(CC3CCC1N3C)C2c1ccccc1 (stereo not drawn) [Z]"
  inhibition at 10 µM (%): -27.6

Okay, now this molecule:
// query inhibition at 10 µM value for entry CN1C2CCC1C1c3cc(Cl)ccc3C(O)(c3ccccc3)C1C2 (stereo not drawn) [VV]
0.9
